Reference for the values: BigSolDB 2.1

Settings: in THF, 293.15 K
measured-endpoint: solubility (mole fraction)

input-smiles | measured-endpoint | measured
CCOC(=O)c1c(CSc2ccccc2)n(C)c2cc(Br)c(O)c(CN(C)C)c12.Cl.O | solubility (mole fraction) | 0.000382

---

Conditions: in ethyl acetate, 313.15 K

input-smiles | solubility (mole fraction)
CCOC(=O)c1c(CSc2ccccc2)n(C)c2cc(Br)c(O)c(CN(C)C)c12.Cl.O | 0.0002

---

Conditions: in ethyl acetate, 323.15 K
measured-endpoint: solubility (mole fraction)

input-smiles | measured
CCOC(=O)c1c(CSc2ccccc2)n(C)c2cc(Br)c(O)c(CN(C)C)c12.Cl.O | 0.000295

---

Details: in ethanol, 293.15 K
measured-endpoint: solubility (mole fraction)

input-smiles | measured
CCOC(=O)c1c(CSc2ccccc2)n(C)c2cc(Br)c(O)c(CN(C)C)c12.Cl.O | 0.00973

---

Conditions: in NMP, 308.15 K
measured-endpoint: solubility (mole fraction)

input-smiles | measured
CCOC(=O)c1c(CSc2ccccc2)n(C)c2cc(Br)c(O)c(CN(C)C)c12.Cl.O | 0.0417

---

Settings: in acetone, 293.15 K

input-smiles | solubility (mole fraction)
CCOC(=O)c1c(CSc2ccccc2)n(C)c2cc(Br)c(O)c(CN(C)C)c12.Cl.O | 0.000193

---

Details: in water, 318.15 K

input-smiles | solubility (mole fraction)
CCOC(=O)c1c(CSc2ccccc2)n(C)c2cc(Br)c(O)c(CN(C)C)c12.Cl.O | 0.000156

---

Conditions: in NMP, 313.15 K

input-smiles | solubility (mole fraction)
CCOC(=O)c1c(CSc2ccccc2)n(C)c2cc(Br)c(O)c(CN(C)C)c12.Cl.O | 0.0462

---

Settings: in THF, 328.15 K

input-smiles | solubility (mole fraction)
CCOC(=O)c1c(CSc2ccccc2)n(C)c2cc(Br)c(O)c(CN(C)C)c12.Cl.O | 0.00265

---

Conditions: in NMP, 328.15 K
measured-endpoint: solubility (mole fraction)

input-smiles | measured
CCOC(=O)c1c(CSc2ccccc2)n(C)c2cc(Br)c(O)c(CN(C)C)c12.Cl.O | 0.0635

---

Conditions: in n-propanol, 333.15 K

input-smiles | solubility (mole fraction)
CCOC(=O)c1c(CSc2ccccc2)n(C)c2cc(Br)c(O)c(CN(C)C)c12.Cl.O | 0.027

---

Settings: in methanol, 313.15 K

input-smiles | solubility (mole fraction)
CCOC(=O)c1c(CSc2ccccc2)n(C)c2cc(Br)c(O)c(CN(C)C)c12.Cl.O | 0.0622

---

Conditions: in ethanol, 328.15 K

input-smiles | solubility (mole fraction)
CCOC(=O)c1c(CSc2ccccc2)n(C)c2cc(Br)c(O)c(CN(C)C)c12.Cl.O | 0.0366

---

Conditions: in THF, 318.15 K

input-smiles | solubility (mole fraction)
CCOC(=O)c1c(CSc2ccccc2)n(C)c2cc(Br)c(O)c(CN(C)C)c12.Cl.O | 0.00163

---

Settings: in water, 293.15 K
measured-endpoint: solubility (mole fraction)

input-smiles | measured
CCOC(=O)c1c(CSc2ccccc2)n(C)c2cc(Br)c(O)c(CN(C)C)c12.Cl.O | 5.82e-05

---

Settings: in DMF, 313.15 K
measured-endpoint: solubility (mole fraction)

input-smiles | measured
CCOC(=O)c1c(CSc2ccccc2)n(C)c2cc(Br)c(O)c(CN(C)C)c12.Cl.O | 0.0351
